Molecular target: Sodium-dependent dopamine transporter (Homo sapiens)

| Record Smiles | Ki |
| --- | --- |
| NCCc1ccc(O)c(O)c1 | > 10 µM |

---

Molecular target: GABA A receptor alpha-2/beta-2/gamma-2 (Homo sapiens, UniProt P18507+P47869+P47870)
Sequence (P47870 whole entry): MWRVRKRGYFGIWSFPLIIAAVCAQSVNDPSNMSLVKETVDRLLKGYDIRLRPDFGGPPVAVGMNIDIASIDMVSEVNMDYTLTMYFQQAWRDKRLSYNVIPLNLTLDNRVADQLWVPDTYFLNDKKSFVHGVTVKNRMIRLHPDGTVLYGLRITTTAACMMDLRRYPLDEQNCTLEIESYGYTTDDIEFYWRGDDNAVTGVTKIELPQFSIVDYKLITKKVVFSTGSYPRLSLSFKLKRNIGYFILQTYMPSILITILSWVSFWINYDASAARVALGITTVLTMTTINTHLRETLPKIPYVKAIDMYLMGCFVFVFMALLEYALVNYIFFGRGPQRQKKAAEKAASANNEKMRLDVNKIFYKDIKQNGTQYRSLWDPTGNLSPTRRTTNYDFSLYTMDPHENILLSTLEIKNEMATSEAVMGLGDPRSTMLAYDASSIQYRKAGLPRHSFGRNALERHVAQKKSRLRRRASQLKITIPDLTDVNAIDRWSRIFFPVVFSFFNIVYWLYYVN
Sequence (P18507 whole entry): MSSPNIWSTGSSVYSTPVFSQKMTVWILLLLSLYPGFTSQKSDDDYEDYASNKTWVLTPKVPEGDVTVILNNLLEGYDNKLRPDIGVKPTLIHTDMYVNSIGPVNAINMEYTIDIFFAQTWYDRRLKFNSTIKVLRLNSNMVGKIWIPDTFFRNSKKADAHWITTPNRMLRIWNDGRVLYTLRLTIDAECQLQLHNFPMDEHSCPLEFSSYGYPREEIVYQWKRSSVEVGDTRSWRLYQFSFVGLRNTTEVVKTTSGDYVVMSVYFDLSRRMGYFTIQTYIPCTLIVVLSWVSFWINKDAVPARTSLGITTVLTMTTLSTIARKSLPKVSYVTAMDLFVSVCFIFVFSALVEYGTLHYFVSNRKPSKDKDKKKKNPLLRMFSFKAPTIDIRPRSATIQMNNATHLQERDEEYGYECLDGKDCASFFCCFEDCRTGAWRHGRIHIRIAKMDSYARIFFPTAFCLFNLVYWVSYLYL
Sequence (P47869 whole entry): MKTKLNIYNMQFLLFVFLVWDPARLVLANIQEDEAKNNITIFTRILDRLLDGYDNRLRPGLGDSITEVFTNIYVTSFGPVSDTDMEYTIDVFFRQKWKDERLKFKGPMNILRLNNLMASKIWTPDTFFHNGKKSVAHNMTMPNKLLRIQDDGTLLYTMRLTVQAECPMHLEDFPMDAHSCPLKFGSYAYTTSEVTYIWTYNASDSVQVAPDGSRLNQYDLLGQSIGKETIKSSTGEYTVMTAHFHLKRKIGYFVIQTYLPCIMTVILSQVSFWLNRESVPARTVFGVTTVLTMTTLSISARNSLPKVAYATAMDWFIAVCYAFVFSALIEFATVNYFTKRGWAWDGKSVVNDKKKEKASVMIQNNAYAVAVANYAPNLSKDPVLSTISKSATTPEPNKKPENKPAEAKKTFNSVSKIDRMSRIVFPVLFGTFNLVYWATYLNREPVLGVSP
Assay: Displacement of [3H]flunitrezepam from GABA-A alpha-2-beta-2-gamma-2 receptor by liquid scintillation counting
pKi: −log10 of the molar value.

| Record Smiles | pKi |
| --- | --- |
| COc1ccc2c3c(oc2c1)C(=O)Nc1cccc[n+]1C3.[Cl-] | 5.09 |
